# Protocol Description: yeast display, Sf9 membrane polyspecificity reagent, FACS + sequencing; frameworks hold sequencing errors

Monomer Sequence	polyreactivity (PSR sort gate)
QVQLVESGGGLVQAGGSLRISCAASGGTFRPNAKGWSRQAPGKERELVAAITRSGGSTYYADSVKGRFTISRDNAKNTVYLQRNSLKPEETAVYYCARDLREWGQGTQVTVSS	low polyreactivity
QVQLVESGGGLVQAGGSLRLSCAASGYIFEYYAMGWYRQAPGKDRELVAAISWSGGSTYYADSVKGRFTISRDNAKNTVYLQMNSLKPEDTAVYYCAAESYLPYWDSYYRYDYWGQGTQVTVSS	low polyreactivity
QVQLVESGGGLVQAGGSLRLSCAASGSTFRRYAMGWYRQAPGKERELVAAITSTDVNTYYADSVKGRFTISRDNAKNTVYLQMNSLKPEDTAVYYCAAVYLGYYGVSDMEYWGQGTQVTVSS	high polyreactivity
QVQLVESGGGLVQAGGSLRLSCAASGSTFRSYDMGWYRQAPGKERELVAASSSGGSTNYADSVKGRFTISRDNAKNTVYLQMNSLKPEDTAVYYCNAEYPYYWFKYDYWGQGTQVTVSS	low polyreactivity
QVQLVESGGGLVQAGGTLRLICAATGRTFDFNAMGWYRQAPGKERELVAAITESGGSTYYADSVKGRFTISRDNAKNTVYLQMNSLKPEDTAVYYCAVAGNYYRDYPEVSYFSIYNYWGQGTQVTVSS	low polyreactivity
QVQLVESGGGLVQAGGSLRLSCAASGSIFVWNAMGWYRQAPGKERELVAAISYTDGSTYYADSVKGRFTISRDNAKNTVYLQMNSLKPEDTAVYYCAAAITPSYTGSEYDYWGQGTQVTVSS	low polyreactivity
QVQLVESGGGLVQAGGSLRLSSASSGSTFWIYAMGWYRQAPGKEREMVASIRRACNTYADSVKGRFTISRDNAKNTVYLQMNSLKPEDTAVYYCNARLYLPYGYRRSNGYESDYWGQGTQVTVSS	high polyreactivity
QVQLVESGGGLVQAGCSLLLSCAASGRSFTHNAMGWYRPAHGPERELGAAITSRGRTTYADSVKGRFTISRDNAKNTVYVQMNSLKPEDTAVYYCATSVWFPITSYDYWGQGTQVTVSS	low polyreactivity
QVQLVESGGGLVQAGGSLRLSCAASGSTFQYNAMGWYRQAPGKERELVATITWSGGSTYYADSVKGRFTISRDNAKNTVYLQMNSLKPEDTAVYYCAADYYYGYEFGYWGQGTKVTVSS	low polyreactivity
QVQLVESGGGLVQAGVSLRLSCAASGSTFIRNAMGWYRKAPGKERELVAAISSGGASTHYADSVKGRFTISRDNAKNTVYLQMKSLKPEDTAVYYCSATHRWYYWPGIPAYDYWGQGTQVTVSS	low polyreactivity
QVQLVESGGGLVQAGGSLRLSCAASGRTFTWNVMGWYIQAPGKERELVAAISSSGGDTYYADSVKGRFTISRDNAKNTVYLHMNSLKPEDTAVYYCAAGQVYSGYEYWGQGTQVTVSS	low polyreactivity
